assay.method.text: Kinetic solubility of the compound at pH 7.4 after 1 hr by CLND-based assay
Type: physicochemical
condition.context: buffer, read-out: Kinetic_solubility
Measured solubility kinetic at 1 h accompanies every entry in the list below.
Kindly provide the numeric value in µM only, without the unit symbol.

Here are 3 molecules together with their reported answers.
O=C(Nc1nc(-c2ccc(Cl)c(Cl)c2)cs1)c1cncs1 ... 2
O=C(NC1=NN(c2ccc(Cl)c(Cl)c2)CC1)c1cncnc1 ... 8
CC(=O)Nc1nc(-c2cccc(Cl)c2)cs1 ... 2

The molecule listed as `N#CCC(=O)Nc1cc(-c2ccc(Cl)c(Cl)c2)cs1` has a reported solubility kinetic at 1 h of 12

// recorded solubility kinetic at 1 h for `CC(=O)Nc1nc(-c2cc(Cl)c(Cl)s2)cs1` : 1

`CC(=O)Nc1nc(-c2ccc(Cl)cc2)cs1` yielded solubility kinetic at 1 h of 1

Record summary for `CC(=O)Nc1nc(-c2nc(C)no2)cs1` : reported solubility kinetic at 1 h = 186

Data point: `CC(=O)Nc1nc(-c2cccc(O)c2)cs1` ; solubility kinetic at 1 h = 103

For this molecule ( O=C(NC1=NN(c2ccc(Cl)c(Cl)c2)CC1CCO)c1cccnc1 (racemic) ), measured solubility kinetic at 1 h is 192

response.value for `CC(=O)Nc1nc(-c2ccc(F)c(Cl)c2)cs1` (field: solubility kinetic at 1 h) = 10

solubility kinetic at 1 h recorded for this molecule, `N#CCC(=O)Nc1nc(-c2ccc(Cl)c(Cl)c2)cs1` , is 57

###

measured.target: Tyrosine-protein kinase ABL1 (Homo sapiens, UniProt P00519, D382N)
Sequence (P00519 as listed by the source D382N): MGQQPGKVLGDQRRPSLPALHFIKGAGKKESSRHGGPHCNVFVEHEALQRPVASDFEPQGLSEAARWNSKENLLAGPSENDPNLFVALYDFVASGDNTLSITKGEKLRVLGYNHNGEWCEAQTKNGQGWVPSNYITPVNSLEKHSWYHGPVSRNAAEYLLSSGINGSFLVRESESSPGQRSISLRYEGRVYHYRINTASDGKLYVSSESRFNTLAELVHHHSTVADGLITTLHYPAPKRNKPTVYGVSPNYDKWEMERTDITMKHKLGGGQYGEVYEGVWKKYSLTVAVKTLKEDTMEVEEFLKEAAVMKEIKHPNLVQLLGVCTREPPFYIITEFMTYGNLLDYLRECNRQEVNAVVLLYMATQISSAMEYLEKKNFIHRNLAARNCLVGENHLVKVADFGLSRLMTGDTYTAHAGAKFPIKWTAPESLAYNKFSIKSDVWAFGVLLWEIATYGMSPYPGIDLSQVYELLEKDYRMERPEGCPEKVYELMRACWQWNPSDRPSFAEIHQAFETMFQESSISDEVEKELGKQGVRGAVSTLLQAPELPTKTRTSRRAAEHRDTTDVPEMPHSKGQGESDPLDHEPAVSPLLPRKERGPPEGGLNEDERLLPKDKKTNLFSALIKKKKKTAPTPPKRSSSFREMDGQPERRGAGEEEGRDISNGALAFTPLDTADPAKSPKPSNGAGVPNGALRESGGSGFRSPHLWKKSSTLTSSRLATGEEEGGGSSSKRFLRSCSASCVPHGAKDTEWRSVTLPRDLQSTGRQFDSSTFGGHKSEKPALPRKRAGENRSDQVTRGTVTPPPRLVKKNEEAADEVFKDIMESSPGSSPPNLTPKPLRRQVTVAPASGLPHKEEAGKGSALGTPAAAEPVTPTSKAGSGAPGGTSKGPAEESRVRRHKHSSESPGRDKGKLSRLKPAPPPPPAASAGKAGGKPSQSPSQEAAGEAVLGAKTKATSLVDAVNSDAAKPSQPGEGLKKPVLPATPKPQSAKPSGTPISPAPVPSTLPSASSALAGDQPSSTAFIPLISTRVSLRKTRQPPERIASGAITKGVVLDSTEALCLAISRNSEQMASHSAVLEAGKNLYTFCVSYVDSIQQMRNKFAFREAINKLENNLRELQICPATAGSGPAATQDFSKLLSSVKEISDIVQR
assay.method.text: Displacement of Myr-GQQPGKVLGDQRRPSL(K-TAMRA)G-amide from N-terminal-truncated human c-ABL D382N mutant (46 to 534 residues) after 30 mins by fluorescence polarization binding assay
Output Fulfilled for records whose IC50 is lower than 800 nM, Not fulfilled for records at or above 800 nM.

Examples with answers:
N#CCC(=O)Nc1cccc(-c2ccc(Cl)c(Cl)c2)n1 ... Not fulfilled
N#CCC(=O)Nc1nsc(-c2ccc(Cl)c(Cl)c2)n1 ... Not fulfilled
O=C(NC1=NN(c2ccc(Cl)c(Cl)c2)CC1CCO)c1cccnc1 (racemic) ... Fulfilled

Query: Does this molecule meet the criterion IC50 < 800 nM? `N#CCC(=O)Nc1nc(-c2ccc(Cl)c(Cl)c2)ns1`
Result: Not fulfilled

Query: Record `N#CCC(=O)Nc1cc(-c2ccc(Cl)c(Cl)c2)cs1` : is its IC50 strictly below 800 nM?
Result: Not fulfilled

Query: Please determine if `O=C(NC1=NN(c2ccc(Cl)c(Cl)c2)CC1)c1c(F)cccc1F` is below 800 nM in terms of IC50.
Result: Fulfilled

###

Listed here are molecules together with their documented Papp at 3 h.
assay.method.text: Permeability of the compound at […] after 3 hrs by artificial membrane permeability assay
Type: ADME
condition.context: PAMPA; read-out: permeability
Number only, in ×10⁻⁶ cm/s; omit the unit.

Solved entries (count: 6):
O=C1NC(=O)C(c2cn(-c3ccccc3)nc2-c2ccc(F)cc2)N1 (centres undefined) ... 35
CC(=O)Nc1nc(-c2ccc(Br)s2)cs1 ... 21
CC(=O)NC1=NN(c2ccc(Cl)c(Cl)c2)C[C@H]1C ... 38
CC(=O)Nc1nc(-c2ccc(Cl)cc2)cs1 ... 25
CC(=O)NC1=NN(c2ccc(Cl)c(Cl)c2)[C@H](C)C1 ... 41
O=C(NC1=NN(c2ccc(Cl)c(Cl)c2)CC1)c1ccnnc1 ... 36

Reported Papp at 3 h for `O=C(Nc1nc(-c2ccc(Cl)c(Cl)c2)cs1)C1CC1` was 22.7

`CC(=O)N[C@@H](C)C(=O)NC1=NN(c2ccc(Cl)c(Cl)c2)CC1` yielded Papp at 3 h of 34

###

The reader will find reported Papp at 3 h values listed item by item below.
assay.method.text: Permeability of the compound at […] after 3 hrs by artificial membrane permeability assay
Format: ADME
condition.context: PAMPA; read-out: permeability
# output: numeric value plus its unit

Some compounds with known Papp at 3 h results, for comparison:
N#CCC(=O)Nc1csc(-c2ccc(Cl)c(Cl)c2)n1 ... 35 ×10⁻⁶ cm/s
CS(=O)(=O)Nc1nc(-c2ccc(Cl)c(Cl)c2)cs1 ... 22 ×10⁻⁶ cm/s
CC(=O)Nc1nc(-c2ccc(F)c(Cl)c2)cs1 ... 9.4 ×10⁻⁶ cm/s

Recorded result, `N#CCC(=O)Nc1nc(-c2ccc(Cl)c(Cl)c2)ns1` , Papp at 3 h: 23 ×10⁻⁶ cm/s

So, `Cn1ncc([N+](=O)[O-])c1C(=O)Nc1nc(-c2ccc(Cl)c(Cl)c2)cs1` ? Its Papp at 3 h was 26 ×10⁻⁶ cm/s

Just so you know, measured Papp at 3 h for CC(=O)NC1=NN(c2ccc(Cl)c(Cl)c2)CC1C (racemic) came out at 40.5 ×10⁻⁶ cm/s

Looking up `NC1=NN(c2ccc(Cl)c(Cl)c2)CC1` , I see its Papp at 3 h listed as 32 ×10⁻⁶ cm/s

###

measured.target: Tyrosine-protein kinase ABL1 (Homo sapiens, UniProt P00519)
Sequence (P00519 whole entry): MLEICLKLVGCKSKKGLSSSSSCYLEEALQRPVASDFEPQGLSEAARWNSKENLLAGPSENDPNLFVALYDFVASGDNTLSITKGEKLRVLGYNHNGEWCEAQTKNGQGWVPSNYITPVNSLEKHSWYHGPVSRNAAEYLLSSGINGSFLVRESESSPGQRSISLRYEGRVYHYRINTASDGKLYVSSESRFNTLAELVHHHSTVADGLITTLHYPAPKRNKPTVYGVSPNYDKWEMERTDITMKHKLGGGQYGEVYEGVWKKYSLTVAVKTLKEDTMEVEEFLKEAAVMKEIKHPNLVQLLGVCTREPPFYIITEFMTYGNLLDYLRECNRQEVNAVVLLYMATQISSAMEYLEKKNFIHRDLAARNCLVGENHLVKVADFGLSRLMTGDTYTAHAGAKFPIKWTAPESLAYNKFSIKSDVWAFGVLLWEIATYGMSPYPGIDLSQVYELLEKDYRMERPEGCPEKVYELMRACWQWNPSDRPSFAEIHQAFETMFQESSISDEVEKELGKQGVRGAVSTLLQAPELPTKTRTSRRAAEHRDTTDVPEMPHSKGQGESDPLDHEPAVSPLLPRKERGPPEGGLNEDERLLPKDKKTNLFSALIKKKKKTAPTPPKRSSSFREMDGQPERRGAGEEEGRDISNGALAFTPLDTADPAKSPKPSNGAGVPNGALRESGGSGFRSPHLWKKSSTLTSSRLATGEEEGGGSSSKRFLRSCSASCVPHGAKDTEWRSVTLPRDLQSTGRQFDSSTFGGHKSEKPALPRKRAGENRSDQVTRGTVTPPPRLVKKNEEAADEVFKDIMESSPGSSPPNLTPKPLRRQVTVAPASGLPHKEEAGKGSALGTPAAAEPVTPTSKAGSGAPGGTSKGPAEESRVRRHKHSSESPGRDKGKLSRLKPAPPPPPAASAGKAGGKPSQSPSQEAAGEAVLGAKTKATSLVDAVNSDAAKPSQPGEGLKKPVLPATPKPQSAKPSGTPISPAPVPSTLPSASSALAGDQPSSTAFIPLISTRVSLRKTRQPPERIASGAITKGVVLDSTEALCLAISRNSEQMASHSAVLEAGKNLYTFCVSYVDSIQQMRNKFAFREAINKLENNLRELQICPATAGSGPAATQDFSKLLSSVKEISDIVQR
assay.method.text: Activation of full length human 6His-tagged c-Abl expressed in baculovirus expression system using abltide as substrate after 2 hrs by IMAP assay
condition.context: read-out: pIC50 (converted)
Classes by EC50 for c-Abl activation: lo: < 300 nM; mid: ≥ 300 nM and < 3000 nM; hi: ≥ 3000 nM

As a guide, the following entries are already answered.
N#CCC(=O)NC1=NN(c2ccc(Cl)c(Cl)c2)CC1 ... lo
CC(=O)Nc1nc(-c2ccc(Cl)c(F)c2)cs1 ... hi
NC1=NN(c2ccc(Cl)c(Cl)c2)CC1 ... hi
N#CCC(=O)Nc1csc(-c2ccc(Cl)c(Cl)c2)c1 ... hi
O=C(NC1=NN(c2ccc(Cl)c(Cl)c2)CC1)c1ccncc1 ... lo
N#CCC(=O)Nc1cc(-c2ccc(Cl)c(Cl)c2)cs1 ... hi
CC(=O)Nc1nc(-c2cccc(Cl)c2)cs1 ... hi
O=C(NC1=NN(c2ccc(Cl)c(Cl)c2)CC1CCO)c1ccncc1 (racemic) ... lo

Query: Tag the class for `N#CCC(=O)Nc1nsc(-c2ccc(Cl)c(Cl)c2)n1`
Result: mid

Query: Lab note: sort `CC(=O)Nc1nc(-c2cccc(O)c2)cs1` into the matching EC50 for c-Abl activation band.
Result: hi

Query: State the band of `N#CCC(=O)Nc1nc(-c2ccc(Cl)c(Cl)c2)c[nH]1`
Result: mid

Query: Any idea which band `CC(=O)NC1=NN(c2ccc(Cl)c(Cl)c2)[C@H](C)C1` is in?
Result: mid

Query: Which class is correct for the following molecule? `O=C(NC1=NN(c2ccc(Cl)c(Cl)c2)CC1)c1cccnc1F`
Result: lo

Query: Hello team, could you let me know which band the following molecule falls into: `O=C(Nc1nc(-c2ccc(Cl)c(Cl)c2)cs1)c1c(F)cccc1F`
Result: lo

Query: Sort into band: `CC(=O)Nc1nc(-c2cc(Cl)c(Cl)s2)cs1`
Result: hi

Query: Lab log: `Cc1ncncc1C(=O)NC1=NN(c2ccc(Cl)c(Cl)c2)CC1` — assign EC50 for c-Abl activation category
Result: lo

###

measured.target: Tyrosine-protein kinase ABL1 (Homo sapiens, UniProt P00519)
assay.method.text: Activation of full length human 6His-tagged c-Abl expressed in baculovirus expression system using abltide as substrate after 2 hrs by IMAP assay
condition.context: read-out: pIC50 (converted)
The entries below come with measured EC50 for c-Abl activation values attached.

The recorded EC50 for c-Abl activation with Tyrosine-protein kinase ABL1 (Homo sapiens, UniProt P00519) for `CC(=O)Nc1nc(-c2ccc(Cl)cc2)cs1` was 31600 nM

Record `O=C(NC1=NN(c2ccc(Cl)c(Cl)c2)CC1)c1cccnn1` ; system Tyrosine-protein kinase ABL1 (Homo sapiens, UniProt P00519); EC50 for c-Abl activation = 5010 nM

Lab note: compound `O=C(NC1=NN(c2ccc(Cl)c(Cl)c2)CC1)c1cncnc1` tested on Tyrosine-protein kinase ABL1 (Homo sapiens, UniProt P00519); recorded EC50 for c-Abl activation was 251 nM

Form field, EC50 for c-Abl activation with Tyrosine-protein kinase ABL1 (Homo sapiens, UniProt P00519), item `CS(=O)(=O)Nc1nc(-c2ccc(Cl)c(Cl)c2)cs1` : 25100 nM

Record for `O=C(Nc1nc(-c2ccc(Cl)c(Cl)c2)cs1)c1cncs1` under target or system Tyrosine-protein kinase ABL1 (Homo sapiens, UniProt P00519): EC50 for c-Abl activation reported as 501 nM

The compound O=C(NC1=NN(c2ccc(Cl)c(Cl)c2)CC1CCO)c1cccnc1 (racemic) on Tyrosine-protein kinase ABL1 (Homo sapiens, UniProt P00519): EC50 for c-Abl activation was 126 nM

Per the reported Tyrosine-protein kinase ABL1 (Homo sapiens, UniProt P00519) data, `N#CCC(=O)Nc1ccn(-c2ccc(Cl)c(Cl)c2)n1` has EC50 for c-Abl activation of 2510 nM

Entry `N#CCC(=O)Nc1cccc(-c2ccc(Cl)c(Cl)c2)n1` , tested on Tyrosine-protein kinase ABL1 (Homo sapiens, UniProt P00519), has a reported EC50 for c-Abl activation of 12600 nM

For the compound `CC(=O)Nc1nc(-c2ccc(Br)s2)cs1` , the measured EC50 for c-Abl activation on Tyrosine-protein kinase ABL1 (Homo sapiens, UniProt P00519) was 12600 nM

With Tyrosine-protein kinase ABL1 (Homo sapiens, UniProt P00519) as the test system, `CC(=O)Nc1nc(-c2ccc(Cl)c(Cl)c2)cs1` showed EC50 for c-Abl activation of 2510 nM
